These entries and their values trace back to paper PMC9352680.

# target: T1, PUF4 RNA-binding domain (Saccharomyces cerevisiae, UniProt P25339 537-888)
# T1 sequence: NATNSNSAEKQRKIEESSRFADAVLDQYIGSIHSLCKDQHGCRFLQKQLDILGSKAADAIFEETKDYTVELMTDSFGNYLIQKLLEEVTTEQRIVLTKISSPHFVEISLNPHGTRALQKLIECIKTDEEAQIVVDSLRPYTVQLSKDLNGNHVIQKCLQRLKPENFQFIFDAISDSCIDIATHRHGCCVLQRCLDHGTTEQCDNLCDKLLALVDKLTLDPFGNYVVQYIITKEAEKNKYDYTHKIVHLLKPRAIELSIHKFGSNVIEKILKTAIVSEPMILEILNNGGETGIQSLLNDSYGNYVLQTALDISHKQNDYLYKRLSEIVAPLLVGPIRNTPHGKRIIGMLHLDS
# assay_details: Mg; RNA-MaP; 20 mM Na-HEPES pH 7.4, 30 mM KOAc, 0.75 mM MgCl2, 0.1% Tween-20, 5% glycerol, 0.1 mg/mL BSA, 2 mM DTT; 25 C; 0.0125-409.6 nM protein
# assay_conditions: tags: N-His6-TEV cleaved; C-SNAP kept, Cy3B-labelled; label: tethered on chip by stalled RNA polymerase
test_readout: Kd (nM)
Answers are plain numbers, in nM.

| binder | test_readout | units_label | test_result |
| --- | --- | --- | --- |
| UCUCUUUGUUUAUUAUCUCUU (ssRNA) [Ia_S1_P4E.1_K4.1_C4.1_H4.1_[A4T]_A4.1_F4.1_T4.1] | Kd | nM | 11.5 |
| Ie_S4_P3E.2_K3.1_C3.2_H3.1_[+1TTCCT]_A3.1_F3.1_T3.2 (ssRNA) RNA: UUUGACAACUGAUCGUUCUUUCUCUUUUCCUGUAUAUAUAUUCUUUCUCGAUCAGUUGUCUUU | Kd | nM | 1.16 |
| Id_ii_S2_P5E.3_K5.2_C5.2_[T-1G]_H5.2_A5.1_F5.1_T5.2_[T11A]_[A12T] (ssRNA) RNA: UUUGAUUAAUAUGAUAUCGUUCUUUCUCGUAUAUUAUUAAUUUCUUUCUCGAUAUCAUAUUAAUCUUU | Kd | nM | 12.1 |

For each of the binders below, note its Kd.
1. Ic_S4_P5E.1_K5.1_C5.1_H5.1_A5.1_[T5A]_[T6C]_[A7T]_F5.1_[T8C]_[T9A]_[A10T]_T5.1 (ssRNA) RNA: UUUGACAACUGAUCGUUCUUUCUUGUAACUCAUUUCUUUCUCGAUCAGUUGUCUUU
2. Ic_S4_P4E.1_K4.1_C4.1_H4.1_A4.1_[T5G]_[A6T]_[T7C]_F4.1_[A9G]_T4.1 (ssRNA) RNA: UUUGACAACUGAUCGUUCUUUCUUGUAGUCUGUUCUUUCUCGAUCAGUUGUCUUU
3. Ic_S4_P5E.1_K5.1_C5.1_H5.1_A5.1_[T6C]_[A7C]_F5.1_[T8C]_[T9C]_[A10G]_T5.1 (ssRNA) RNA: UUUGACAACUGAUCGUUCUUUCUUGUAUCCCCGUUCUUUCUCGAUCAGUUGUCUUU

1. 325
2. 166
3. 674
